Target: T1, Recombinantly expressed fused calprotectin (His6-linker-S100A9-linker-S100A8), product code B-RCAL, BÜHLMANN Laboratories AG (human), P06702
T1 chain: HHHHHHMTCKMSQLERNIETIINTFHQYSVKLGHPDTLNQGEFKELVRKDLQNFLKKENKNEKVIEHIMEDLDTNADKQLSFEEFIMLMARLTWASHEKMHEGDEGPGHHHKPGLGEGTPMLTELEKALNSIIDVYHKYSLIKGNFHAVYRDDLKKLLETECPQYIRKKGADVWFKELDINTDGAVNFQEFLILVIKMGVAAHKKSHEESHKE
Experiment: fluorescence polarization
Conditions: modification not given
Quick list: Kd per entry.
quantity kind: Kd (nM)

>>> result_number("ASPESVAFPMFQSHWYSG")
32
>>> result_number("RCPECVAFAMFQCHWYCG [P9A]")
30
>>> result_number("ACPECVAFPMFQCHWYCG")
32
